- experiment.notes: clinical
- conditions: human, in vivo, iv, 400 mg, V
Peptide text beside a SMILES is read from it.
reported.endpoint: Vd (L)
Answers are plain numbers, in L.

*Q* Bench note: what Vd did CC(=O)N[C@H](C(=O)N[C@H](CO)C(=O)N[C@H]1CCNC(=O)[C@H]([C@@H](C)O)NC(=O)[C@H](CCN)NC(=O)[C@H](CCN)NC(=O)[C@H](CC(C)C)NC(=O)[C@@H](Cc2ccccc2)NC(=O)[C@H](CCN)NC1=O)[C@@H](C)O [SPR741] (HELM PEPTIDE1{[ac].T.[dS].[Dab].[Dab].[dF].L.[Dab].[Dab].T}$PEPTIDE1,PEPTIDE1,4:R3-10:R2$$$V2.0) show?
*A* 20.6

* * *

- experiment.notes: clinical
- conditions: human, in vivo, iv, 400 mg, t1/2
- Procedure: The drug-drug interaction study was a phase 1, single-center, multiarm, open-label, randomized, three-period crossover study. […] For the SAD phase, blood samples were obtained predose (within 10 min), at 30 min following the start of infusion, at the end of infusion, and at 75, 90, 105, 120, and 150 min and 3, 4, 5, 6, 8, 10, 12, and 24 h following the start of infusion. […] Unique transitions were monitored for all test articles and internal standards. […]
Peptide text beside a SMILES is read from it.
reported.endpoint: half-life
Output should be the measured figure followed by the unit it is expressed in.

*Q* Bench note: what half-life did CC(=O)N[C@H](C(=O)N[C@H](CO)C(=O)N[C@H]1CCNC(=O)[C@H]([C@@H](C)O)NC(=O)[C@H](CCN)NC(=O)[C@H](CCN)NC(=O)[C@H](CC(C)C)NC(=O)[C@@H](Cc2ccccc2)NC(=O)[C@H](CCN)NC1=O)[C@@H](C)O [SPR741] (HELM PEPTIDE1{[ac].T.[dS].[Dab].[Dab].[dF].L.[Dab].[Dab].T}$PEPTIDE1,PEPTIDE1,4:R3-10:R2$$$V2.0) show?
*A* 3.2 h

* * *

- experiment.notes: clinical
- Design: species or system human
- conditions: human, in vivo, iv, 15 mg
Peptide text beside a SMILES is read from it.
reported.endpoint: AUC(0-inf) (ng·h/mL)
One number for each entry, in ng·h/mL.

*Q* Bench note: what AUC(0-inf) did CC(=O)N[C@H](C(=O)N[C@H](CO)C(=O)N[C@H]1CCNC(=O)[C@H]([C@@H](C)O)NC(=O)[C@H](CCN)NC(=O)[C@H](CCN)NC(=O)[C@H](CC(C)C)NC(=O)[C@@H](Cc2ccccc2)NC(=O)[C@H](CCN)NC1=O)[C@@H](C)O [SPR741] (HELM PEPTIDE1{[ac].T.[dS].[Dab].[Dab].[dF].L.[Dab].[Dab].T}$PEPTIDE1,PEPTIDE1,4:R3-10:R2$$$V2.0) show?
*A* 3090

* * *

- experiment.notes: clinical
- Design: species or system human
- conditions: human, in vivo, iv, 50 mg
Peptide text beside a SMILES is read from it.
reported.endpoint: Cmax (ng/mL)
One number for each entry, in ng/mL.

*Q* Bench note: what Cmax did CC(=O)N[C@H](C(=O)N[C@H](CO)C(=O)N[C@H]1CCNC(=O)[C@H]([C@@H](C)O)NC(=O)[C@H](CCN)NC(=O)[C@H](CCN)NC(=O)[C@H](CC(C)C)NC(=O)[C@@H](Cc2ccccc2)NC(=O)[C@H](CCN)NC1=O)[C@@H](C)O [SPR741] (HELM PEPTIDE1{[ac].T.[dS].[Dab].[Dab].[dF].L.[Dab].[Dab].T}$PEPTIDE1,PEPTIDE1,4:R3-10:R2$$$V2.0) show?
*A* 3250
